Molecular target: T1, PARD6G, Q9BYG4
T1 sequence (Q9BYG4 153-261, limits assumed, looked up): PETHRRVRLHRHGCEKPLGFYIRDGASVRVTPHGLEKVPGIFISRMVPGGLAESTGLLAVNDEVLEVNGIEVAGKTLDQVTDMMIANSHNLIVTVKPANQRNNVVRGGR
Assay: holdup assay
Design: key: below the threshold = too weak to quantify, mostly under pKd 3.1 to 4
Conditions: plain residues with an end cap or a label only (N-terminal biotin on a linker: ttds)
Test Readout: pKd

Please review the following examples before continuing.
PPRQRSETQV [HPV82-E6, Q9IR59] : below the threshold
SSIDLWETAL [SLC15A5, A6NIM6] : below the threshold
KLVIKTETTV [RASSF6, Q6ZTQ3] : below the threshold
SHSSKGETAV [FZD7, O75084] : below the threshold
SGGKRKETLV [NET1, Q7Z628] : below the threshold
SRSRRRETAL [HPV33-E6, P06427] : below the threshold

For PSRDRKETSI [RALBP1, Q15311] , what is its reported pKd?
below the threshold
